B1: library; numbered along this chain (parent)
chain: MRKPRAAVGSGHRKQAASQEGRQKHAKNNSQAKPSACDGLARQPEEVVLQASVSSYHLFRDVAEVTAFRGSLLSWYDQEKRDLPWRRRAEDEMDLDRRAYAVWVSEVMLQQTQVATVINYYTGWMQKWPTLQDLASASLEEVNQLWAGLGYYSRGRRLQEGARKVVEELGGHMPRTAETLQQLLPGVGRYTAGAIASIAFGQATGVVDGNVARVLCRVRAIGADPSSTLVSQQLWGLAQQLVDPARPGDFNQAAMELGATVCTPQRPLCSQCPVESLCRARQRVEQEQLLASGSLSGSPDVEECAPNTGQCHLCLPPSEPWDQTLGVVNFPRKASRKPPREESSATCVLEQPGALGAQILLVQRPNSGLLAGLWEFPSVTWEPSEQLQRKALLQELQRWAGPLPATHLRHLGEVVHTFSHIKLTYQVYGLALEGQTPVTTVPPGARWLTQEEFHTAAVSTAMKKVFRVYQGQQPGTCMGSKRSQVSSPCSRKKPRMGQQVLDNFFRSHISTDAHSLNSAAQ

Variants of: B1
Assay: 8OG:A repair function score (normalized; synonymous = 0, nonsense = -1) (normalized log-likelihood score); higher = more repair activity (WT-like);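 note: cells sorted at 72 h after reporter transfection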
Conditions: with 8OG:A DNA repair reporter (GFP) in HEK-293 MUTYH KO cells
MEASURE: 8OG:A repair function score

| MUTATION NOTATION | MEASURE | MEASURED NUMBER |
| --- | --- | --- |
| Y428G | 8OG:A repair function score | -1.13 |
| V47G | 8OG:A repair function score | -0.0668 |
| Q239S | 8OG:A repair function score | -0.175 |
| N517H | 8OG:A repair function score | 0.0285 |
